# Test system: Toxoplasma gondii
# test_description: MMV: A total of 100ul of inoculum was added to each well (parasite/cell ratio, ~10:1; final volume, 200 ul). Six hours after inoculation, nonadherent parasites were removed, and 100 ul of complete DMEM (1% penicillin-streptomycin, 3% FBS) supplemented with inhibitors at different concentrations (2-fold serial dilutions starting from 30 uM) was added to all except the negative-control wells. Positive controls, consisting of pyrimethamine (PYR) and sulfadiazine (SDZ) (20-mg/ml stocks in DMSO), were tested at a 2mg/ml final concentration. Each test was performed in triplicate.
# Type: functional, organism-based
# experimental_context: 6 h
# note: exactly 20 µM is not below, so it is condition not met; use condition met for IC50 strictly under it

CCn1c2c(c(=N)c3c1CCC3)CCCC2    condition not met
CCCCCn1c(=N)n(CC(O)COc2cccc(C)c2)c2ccccc21 (configuration not stated)    condition met
CCCC(c1nnnn1C1CCCCC1)N1CCN(C(=O)c2ccco2)CC1 (configuration not stated)    condition not met
O=C(Nc1ccc(-c2nc3cc4ccccc4cc3[nH]2)cc1)c1cccc(Br)c1    condition not met
CC(NCc1ccccc1)c1cc(Cl)ccc1O (configuration not stated)    condition not met

IC50 strictly < 20 µM for this molecule? `COc1ccc2nc(N)nc(C)c2c1`
condition not met

IC50 strictly < 20 µM for this molecule? CCOC(=O)C1=C(C)N=c2sc(=Cc3cc(Cl)ccc3O)c(=O)n2C1c1ccc(OC)cc1 (configuration not stated)
condition not met

IC50 strictly < 20 µM for this molecule? `Cc1cc(NCCN2CCCCC2)c2ccc3ccccc3c2n1`
condition not met

IC50 strictly < 20 µM for this molecule? `Cc1cc(Nc2cccc(F)c2)nc(NCc2ccccc2)n1`
condition not met

IC50 strictly < 20 µM for this molecule? `Cc1ccc2c(C)nc(Nc3nc(C)cc(-c4ccccc4)n3)nc2c1`
condition not met

IC50 strictly < 20 µM for this molecule? `Cc1ccc(-c2cc3nc4c(c(O)n3n2)CCCC4)cc1`
condition met

====

Listed compounds paired with reported pIC50
# System: Toxoplasma gondii
# test_description: MMV: A total of 100ul of inoculum was added to each well (parasite/cell ratio, ~10:1; final volume, 200 ul). Six hours after inoculation, nonadherent parasites were removed, and 100 ul of complete DMEM (1% penicillin-streptomycin, 3% FBS) supplemented with inhibitors at different concentrations (2-fold serial dilutions starting from 30 uM) was added to all except the negative-control wells. Positive controls, consisting of pyrimethamine (PYR) and sulfadiazine (SDZ) (20-mg/ml stocks in DMSO), were tested at a 2mg/ml final concentration. Each test was performed in triplicate.
# Type: functional, organism-based
# experimental_context: 6 h
pIC50: −log10 of the molar value.

O=C(NC1CCCCC1)C(c1cccs1)N(CCc1ccccc1)C(=O)c1ccco1 (stereo not given)    < 4.52

// Input: CCC1(C)CC(CCNCc2ccccc2O)(c2ccc(C)cc2)CCO1 (stereo not given) . Output its pIC50 only.
< 4.52

// Input: CSC1=NC(=Nc2c(C)cccc2C)C2(CCC(C(C)(C)C)CC2)N1c1ccc(Cl)cc1 (stereo not given) . Output its pIC50 only.
< 4.52

// Input: CCOc1ccc(CN2CCN(CC(O)COc3ccc(OCC(O)CN4CCN(Cc5ccc(OCC)cc5)CC4)cc3)CC2)cc1 (stereo not given) . Output its pIC50 only.
< 4.52

// Input: `CCOC(=O)c1cnc2ccc(OC)cc2c1Nc1ccc(N2CCN(C)CC2)cc1` . Output its pIC50 only.
< 4.52

// Input: `CCOC(=O)c1cnc2c(C)cccc2c1Nc1ccc(C(C)=O)cc1` . Output its pIC50 only.
< 4.52

// Input: `FC(F)(F)c1cccc(CNC2CCN(CCc3ccccc3)CC2)c1` . Output its pIC50 only.
< 4.52

// Input: N=c1n(CCN2CCCCC2)c2ccccc2n1CC(O)c1cccc(Br)c1 (stereo not given) . Output its pIC50 only.
< 4.52

// Input: `COc1nc(Nc2ccc(C(C)C)cc2)nc(OC)n1` . Output its pIC50 only.
< 4.52

// Input: `COc1ccc(Nc2cc(C)nc(NCc3ccccc3)n2)cc1` . Output its pIC50 only.
< 4.52

====

# System: Toxoplasma gondii
# test_description: MMV: A total of 100ul of inoculum was added to each well (parasite/cell ratio, ~10:1; final volume, 200 ul). Six hours after inoculation, nonadherent parasites were removed, and 100 ul of complete DMEM (1% penicillin-streptomycin, 3% FBS) supplemented with inhibitors at different concentrations (2-fold serial dilutions starting from 30 uM) was added to all except the negative-control wells. Positive controls, consisting of pyrimethamine (PYR) and sulfadiazine (SDZ) (20-mg/ml stocks in DMSO), were tested at a 2mg/ml final concentration. Each test was performed in triplicate.
# Format: functional, organism-based
# experimental_context: 6 h
pIC50: −log10 of the molar value.
measured_quantity: pIC50

Examples with answers:
O=C(Nc1ccc(Cl)c(Cl)c1)Nc1ccc(Cl)c(Cl)c1    < 4.52
CC(C)(C)CC(C)(C)NCC(O)COc1ccc(Cl)cc1Cl (stereo unspecified)    < 4.52
CCOC(=O)c1cnc2ccc(Cl)cc2c1NCCCN(C)C    < 4.52

Proceed to the following item.
// Input: Cc1cc(NC(=O)C2c3ccccc3C(=O)N(CC(C)C)C2c2cccs2)no1 (stereo unspecified) . Output its pIC50 only.
4.68

====

# Tested on: Toxoplasma gondii
# test_description: MMV: A total of 100ul of inoculum was added to each well (parasite/cell ratio, ~10:1; final volume, 200 ul). Six hours after inoculation, nonadherent parasites were removed, and 100 ul of complete DMEM (1% penicillin-streptomycin, 3% FBS) supplemented with inhibitors at different concentrations (2-fold serial dilutions starting from 30 uM) was added to all except the negative-control wells. Positive controls, consisting of pyrimethamine (PYR) and sulfadiazine (SDZ) (20-mg/ml stocks in DMSO), were tested at a 2mg/ml final concentration. Each test was performed in triplicate.
# Type: functional, organism-based
# experimental_context: 6 h
pIC50: −log10 of the molar value.
measured_quantity: pIC50

Examples with answers:
CC(C)(C)c1ccc(C2CC3=Nc4ccccc4N(C(=O)c4ccccc4Cl)C(c4ccc(F)cc4)C3=C(O)C2)cc1 (stereo not given)    < 4.52
Cc1ccc(CSCc2ccc(C(=O)NC3CC3)o2)cc1    4.65
COc1cc(-c2nc(-c3ccccc3)c(-c3ccccc3)[nH]2)cc(OC)c1O    < 4.52
Cc1cc(C)c2c(c1)OCN(Cc1ccccc1Cl)C2    < 4.52
COc1ccc(-c2cc(=O)oc3c4c(ccc23)OCN(Cc2ccc(F)cc2)C4)cc1    < 4.52
COc1ccc(-c2c(C)nn3c(N)c(C#N)cnc23)cc1OC    < 4.52
Cc1sc2ncnc(Sc3nc4ccccc4[nH]3)c2c1C    4.86
O=C(NCc1ccco1)C1CCN(S(=O)(=O)c2ccc(Br)cc2)CC1    < 4.52
COc1ccc(Br)cc1C1Nc2ccc3ccccc3c2C2=C1C(=O)CC(c1ccccc1)C2 (stereo not given)    < 4.52

Proceed to the following item.
// Input: `Nc1ccc(-c2nc3cc(Cc4ccc5[nH]c(-c6ccc(N)cc6)nc5c4)ccc3[nH]2)cc1` . Output its pIC50 only.
< 4.52

====

Listed molecules paired with reported pIC50
# Test system: Toxoplasma gondii
# test_description: MMV: A total of 100ul of inoculum was added to each well (parasite/cell ratio, ~10:1; final volume, 200 ul). Six hours after inoculation, nonadherent parasites were removed, and 100 ul of complete DMEM (1% penicillin-streptomycin, 3% FBS) supplemented with inhibitors at different concentrations (2-fold serial dilutions starting from 30 uM) was added to all except the negative-control wells. Positive controls, consisting of pyrimethamine (PYR) and sulfadiazine (SDZ) (20-mg/ml stocks in DMSO), were tested at a 2mg/ml final concentration. Each test was performed in triplicate.
# Assay type: functional, organism-based
# experimental_context: 6 h
pIC50: −log10 of the molar value.

CC(C)c1ccc(CNCC(O)c2ccccc2)cc1 (stereo not drawn)    4.74
CCCCCCc1cc2cc(-c3nc4ccccc4[nH]3)c(=Nc3ccccc3C)oc2cc1O    5.20
CN(C)c1ccc(-c2nc3cc(N)ccc3[nH]2)cc1    < 4.52
CC(O)(c1ccc(Cl)cc1)C(CN1CCCCC1)c1ccccc1 (stereo not drawn)    < 4.52
O=C(Nc1ccccc1O)c1ccc(Oc2cccc(C(=O)Nc3ccccc3O)c2)cc1    4.88
COc1ccc2nc(C)cc(Nc3cccc(O)c3)c2c1    < 4.52

// output pIC50; input `CCOc1ccc(-n2cc(-c3ccccc3)c3c(SCc4cc(C)ccc4C)ncnc32)cc1` ; system Toxoplasma gondii
4.95

// output pIC50; input COc1cc2c3cc1Oc1c(OC)c(OC)cc4c1C(Cc1ccc(O)c(c1)Oc1ccc(cc1)CC3N(C)CC2)N(C)CC4 (stereo not drawn) ; system Toxoplasma gondii
< 4.52

// output pIC50; input CC(C)CCNCC(O)Cn1c2ccccc2c2ccccc21 (stereo not drawn) ; system Toxoplasma gondii
< 4.52
